Tested on: M14
experiment_summary: NCI tumour cell line growth inhibition, 48 h
Activity calls are given as the source filed them. No stated cut-off is given here; in the data, active = GI50 up to about 1.1 µM and inactive = higher.
# reported GI50; entries follow
parameter_measured: GI50

{"compound": "CSC(=S)OC1CC(n2cnc3c(NC(=O)c4ccccc4)ncnc32)OC1CO[Si](C)(C)C(C)(C)C (stereo not given)", "test_result": "13.9 µM (inactive)"}
{"compound": "C[n+]1c2ccccc2c(NC(CCC(N)=O)C(=O)O)c2ccccc21 (stereo not given)", "test_result": "> 100 µM (inactive)"}
{"compound": "CC(=O)/C=C1/C(=O)C(CC(C)C)=C1CC(C)C", "test_result": "> 100 µM (inactive)"}
{"compound": "Cc1ccc2nc(SCC(=O)N/N=C3\\C(=O)Nc4ccccc43)n(-c3ccccc3)c(=O)c2c1", "test_result": "16.3 µM (inactive)"}
{"compound": "CC1(O)CCC(C(C)(C)O)CC1 (stereo not given)", "test_result": "> 100 µM (inactive)"}
